target: purified pig brain tubulin (Sus scrofa, UniProt P02550+P02554); construct: native alpha/beta-tubulin purified from pig brain; assay: tubulin polymerization, absorbance […] nm
Sequence (P02554 whole entry): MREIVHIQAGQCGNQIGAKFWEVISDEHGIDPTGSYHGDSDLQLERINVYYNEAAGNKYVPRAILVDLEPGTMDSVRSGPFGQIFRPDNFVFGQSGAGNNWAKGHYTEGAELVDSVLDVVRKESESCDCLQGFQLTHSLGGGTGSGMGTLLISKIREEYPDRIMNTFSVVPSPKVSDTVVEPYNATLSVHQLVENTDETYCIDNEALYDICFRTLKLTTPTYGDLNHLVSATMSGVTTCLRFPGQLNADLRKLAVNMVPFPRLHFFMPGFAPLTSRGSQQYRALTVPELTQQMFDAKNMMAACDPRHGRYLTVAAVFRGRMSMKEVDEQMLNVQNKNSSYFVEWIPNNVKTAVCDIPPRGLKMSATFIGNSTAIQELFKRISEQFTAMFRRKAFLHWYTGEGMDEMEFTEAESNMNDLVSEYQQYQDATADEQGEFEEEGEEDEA
Sequence (P02550 whole entry): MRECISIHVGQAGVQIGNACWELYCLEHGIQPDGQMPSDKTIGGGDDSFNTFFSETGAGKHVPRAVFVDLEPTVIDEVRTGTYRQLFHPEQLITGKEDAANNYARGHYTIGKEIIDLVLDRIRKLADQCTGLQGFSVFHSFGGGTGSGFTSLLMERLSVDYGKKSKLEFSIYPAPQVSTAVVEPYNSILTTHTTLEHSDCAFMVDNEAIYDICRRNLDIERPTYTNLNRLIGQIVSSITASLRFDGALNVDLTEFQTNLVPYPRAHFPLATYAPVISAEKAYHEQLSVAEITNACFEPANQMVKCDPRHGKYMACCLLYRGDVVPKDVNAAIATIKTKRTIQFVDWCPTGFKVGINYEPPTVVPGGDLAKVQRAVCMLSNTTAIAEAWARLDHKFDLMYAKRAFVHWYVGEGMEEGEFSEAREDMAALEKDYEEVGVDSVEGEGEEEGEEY
Readout name: EC50
Phrase the answer as number then unit, nothing more needed.

query: Using the record for C=C(C)[C@H]1Cc2c(ccc3c2O[C@@H]2COc4cc(OC)c(OC)cc4[C@@H]2C3=O)O1 , report its EC50.
result: 640 nM
